Molecular target: CCR8 (Homo sapiens, UniProt P51685)
Sequence (P51685 whole entry, the tested form may be a part): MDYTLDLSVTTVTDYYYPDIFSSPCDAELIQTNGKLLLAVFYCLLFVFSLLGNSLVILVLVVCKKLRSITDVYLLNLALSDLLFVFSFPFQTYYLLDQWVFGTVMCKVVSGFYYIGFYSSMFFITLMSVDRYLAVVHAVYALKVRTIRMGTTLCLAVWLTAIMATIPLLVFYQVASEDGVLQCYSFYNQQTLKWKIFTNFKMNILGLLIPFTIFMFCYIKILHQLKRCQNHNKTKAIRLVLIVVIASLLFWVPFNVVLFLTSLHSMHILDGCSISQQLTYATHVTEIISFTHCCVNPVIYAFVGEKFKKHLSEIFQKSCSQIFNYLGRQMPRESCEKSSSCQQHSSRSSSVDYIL
Assay: Tango assay (Tango-CCR8-Gal4-CHO-K1 cells, CCL1-stimulated, ONE-Glo luminescence)
Details: Tango Assay IC50, Inhibition of CCR8 Tango cell in vitro
Where a name gives a salt, the structure may show the parent alone.
Listed here: items and their measured pIC50.
In simple prose, pIC50 is minus the logarithm base ten of a concentration in moles per litre.

Use the examples below as a reference point.
| molecule | pIC50 |
| --- | --- |
| Cc1cc(S(=O)(=O)N[C@H](C)C2CCNCC2)ccc1NC1(c2ccccc2)COC1 | 6.65 |
| Cc1cc(S(=O)(=O)N[C@H](C)C2CCN(C3CCCC3)CC2)ccc1NC(=O)c1ccccc1C | 9.00 |

Query :: // lookup pIC50 for Cc1ccc(C(=O)Nc2ccc(S(=O)(=O)N[C@H](C)C3CCNCC3)cc2C)c(C)c1 [Compound 259A, hydrochloride]
Result :: 8.52
